- method: Single oral dose pharmacokinetics of atazanavir
- Parameters: species or system Wistar rats
- experimental parameters: male, Wistar, rat, in vivo, 10 mg/kg
quantity measured: Cmax (ng/mL)
Respond with the bare value in ng/mL.

Ask | Requested read-out: Cmax. Entry: COC(=O)N[C@H](C(=O)N[C@@H](Cc1ccccc1)[C@@H](O)CN(Cc1ccc(-c2ccccn2)cc1)NC(=O)[C@@H](NC(=O)OC)C(C)(C)C)C(C)(C)C [Aqueous atazanavir, atazanavir]
Reply | 4870

* * *

- method: Multiple oral dose (every 6 hours) pharmacokinetics of atazanavir
- Format: in vivo, Wistar rats
- experimental parameters: male, Wistar; multiple oral dose 10 mg/kg atazanavir every 6 hours, steady state, rat plasma
quantity measured: Cmax (ng/mL)
Quick note: give the figure in ng/mL, leave out the unit.

Ask | Which Cmax value is on record for COC(=O)N[C@H](C(=O)N[C@@H](Cc1ccccc1)[C@@H](O)CN(Cc1ccc(-c2ccccn2)cc1)NC(=O)[C@@H](NC(=O)OC)C(C)(C)C)C(C)(C)C [Aqueous atazanavir, atazanavir] ?
Reply | 3090
